system: SKOV3; test: Primary qHTS to identify gynecologic anti-cancer compounds using libraries of approved drugs and bioactive compounds (AID 1345084); conditions: Gynecologic cancer cell panel viability, ATPlite luminescence, 48 h; series mostly up to 57.5 µM; note: nearly all actives have a fitted effect of over 55% in size
Results filed as inconclusive are left out. Calls of active or inactive are those of the source. Calls come from the whole dose curve; as a rule, active = well fitted cell-killing curve with a large enough effect; inconclusive = small, poorly fitted or top-dose-only effect, or effect the other way; inactive = flat fitted curve, though single readings scatter.
Labels: active, inactive

{"columns": ["Compound", "Class"],
 "data": [
  ["C=C(C(=O)O)C1CCC2(C)CCC(O)C(C)(O)C2C1 (stereo unspecified)", "inactive"],
  ["O=C(CN1C(=O)C2(CCCC2)NCC1c1cc(F)cc(F)c1)Nc1ccc2c(c1)CC1(C2)C(=O)Nc2ncccc21 (stereo unspecified)", "inactive"],
  ["C=C(C(=O)O)C1CCC2(C)CCCC(C)(O)C2C1 (stereo unspecified)", "inactive"],
  ["C[C@H](NC(c1cccc(C[P+](=O)O)c1)[C@H](C)O)c1ccc(Cl)c(Cl)c1 (stereo partly specified)", "inactive"],
  ["COc1cc2c(NC3CCN(CC4CCCCC4)CC3)nc(N3CCCN(C(C)C)CC3)nc2cc1OCCCN1CCCCC1", "active"],
  ["CCOc1cc2ncc(C#N)c(Nc3ccc(F)c(Cl)c3)c2cc1NC(=O)/C=C/CN(C)C", "active"],
  ["CC(C)CCC[C@@H](C)[C@H]1CC[C@H]2[C@@H]3CC(=O)[C@H]4C[C@@H](O)CC[C@]4(C)[C@H]3CC[C@]12C", "inactive"],
  ["CC1CC[C@]2(C(=O)O)CC[C@]3(C(=O)O)C(=CCC4[C@@]5(C)CC[C@H](O[C@@H]6O[C@H](CO)[C@@H](O)[C@H](O)[C@H]6O)C(C)(C)C5CC[C@]43C)C2C1C (stereo partly specified)", "inactive"],
  ["O=C(O)/C=C/c1ccc(-c2ccc(O)c(C34CC5CC(CC(C5)C3)C4)c2)cc1", "active"],
  ["Cc1nc2sc(C(=O)NCc3ccncc3)c(N)c2c(C)c1Cl", "inactive"],
  ["Cc1cc(Cl)ccc1COc1ccnn1-c1cc(C(=O)O)ccn1", "inactive"],
  ["CC1CC(C(O)C(C)(C)O)OC2CC3(C)C4(C)CCC5C(C)(C)C(=O)CCC5(C)C4CCC3(O)C12O (stereo unspecified)", "inactive"],
  ["CC1=C(C(=O)O[C@@H]2O[C@H](COC3OCC(O)C(O)C3O)[C@@H](O)[C@H](O)[C@H]2O)C(C)(C)CCC1 (stereo partly specified)", "inactive"],
  ["COc1cc([C@H]2c3cc(O)c(OC)cc3C[C@@H](CO[C@@H]3O[C@H](CO)[C@@H](O)[C@H](O)[C@H]3O)[C@@H]2CO)ccc1O", "inactive"],
  ["CC(=O)c1ccc(O[C@@H]2O[C@H](CO)[C@@H](O)[C@H](O)[C@H]2O)cc1", "inactive"],
  ["COC(=O)c1cc(OC)c(O[C@@H]2O[C@@H](C)[C@H](O)[C@@H](O)[C@H]2O)c(OC)c1", "inactive"],
  ["NC(=O)C(CCC(F)(F)F)N(Cc1ccc(-c2ncon2)cc1F)S(=O)(=O)c1ccc(Cl)cc1 (stereo unspecified)", "inactive"],
  ["COC(=O)C1=CO[C@@H](O[C@@H]2O[C@H](CO)[C@@H](O)[C@H](O)[C@H]2O)[C@H]2[C@@H]1C=C[C@@]21C=C([C@H](C)O)C(=O)O1", "inactive"],
  ["COC(=O)C1=CO[C@@H](O[C@@H]2O[C@H](CO[C@@H]3O[C@H](COC(=O)/C=C/c4cc(OC)c(O)c(OC)c4)[C@@H](O)[C@H](O)[C@H]3O)[C@@H](O)[C@H](O)[C@H]2O)[C@@H]2C(CO)=CC[C@H]12", "inactive"],
  ["C[C@@H]1C(=O)O[C@H]2[C@@H](O)C34[C@H]5C[C@@H](C(C)(C)C)C36[C@@H](OC(=O)[C@@H]6O)O[C@@]4(C(=O)O5)[C@@]12O (stereo partly specified)", "inactive"],
  ["COC(=O)C1=CO[C@@H](O[C@@H]2O[C@H](CO)[C@@H](O)[C@H](O)[C@H]2O)C2C1C(=O)C[C@H]2C (stereo partly specified)", "inactive"],
  ["CC1=CC(=O)CC(C)(C)C1CCC(C)O[C@@H]1O[C@H](CO[C@@H]2OC[C@@H](O)[C@H](O)[C@H]2O)[C@@H](O)[C@H](O)[C@H]1O (stereo partly specified)", "inactive"],
  ["COC(=O)C1=COC(O[C@@H]2O[C@H](CO)[C@@H](O)[C@H](O)[C@H]2O)[C@H]2[C@@H]1[C@H](OC(=O)CCc1ccc(O)cc1)C[C@]2(C)O (stereo partly specified)", "inactive"],
  ["COc1cc(C(=O)OC[C@H]2O[C@@H](Oc3ccccc3/C=C/C(=O)O)[C@H](O)[C@@H](O)[C@@H]2O)cc(OC)c1OC", "inactive"],
  ["Nc1ncnc2c([C@@H]3N[C@H](CO)[C@@H](O)[C@H]3O)c[nH]c12", "inactive"],
  ["O=C(O)c1ccc(OC2OC(CO)C(O)C(O)C2O)cc1 (stereo unspecified)", "inactive"],
  ["C[C@@H]1O[C@@H](O[C@H]2[C@H](O)[C@@H](O)[C@H](OC3CCC4(C)C5CCC(C)(C(CO)OC6OC(CO)C(O)C(O)C6O)CC5=CCC4C3(C)C)O[C@@H]2CO)[C@H](O)[C@H](O)[C@H]1O (stereo partly specified)", "inactive"],
  ["C=C1CC23CC1CCC2C12OC(=O)C(C)(CCC1O)C2C3C(=O)O (stereo unspecified)", "inactive"],
  ["COc1c2c(cc3c1-c1c(cc4c(c1OC)OCO4)CC(C)C(C)C3)OCO2 (stereo unspecified)", "inactive"],
  ["CC1(C(=O)O)CCCC2(C)C3CCC4CC3(CCC12)CC4=O (stereo unspecified)", "inactive"],
  ["CC1=CC(=O)CC(C)(C)[C@H]1/C=C/C(CO)O[C@@H]1O[C@H](CO)[C@@H](O)[C@H](O)[C@H]1O (stereo partly specified)", "inactive"]
]}
